Target: TBK1 (Homo sapiens (Human), UniProt Q9UHD2)
Sequence (Q9UHD2 whole entry): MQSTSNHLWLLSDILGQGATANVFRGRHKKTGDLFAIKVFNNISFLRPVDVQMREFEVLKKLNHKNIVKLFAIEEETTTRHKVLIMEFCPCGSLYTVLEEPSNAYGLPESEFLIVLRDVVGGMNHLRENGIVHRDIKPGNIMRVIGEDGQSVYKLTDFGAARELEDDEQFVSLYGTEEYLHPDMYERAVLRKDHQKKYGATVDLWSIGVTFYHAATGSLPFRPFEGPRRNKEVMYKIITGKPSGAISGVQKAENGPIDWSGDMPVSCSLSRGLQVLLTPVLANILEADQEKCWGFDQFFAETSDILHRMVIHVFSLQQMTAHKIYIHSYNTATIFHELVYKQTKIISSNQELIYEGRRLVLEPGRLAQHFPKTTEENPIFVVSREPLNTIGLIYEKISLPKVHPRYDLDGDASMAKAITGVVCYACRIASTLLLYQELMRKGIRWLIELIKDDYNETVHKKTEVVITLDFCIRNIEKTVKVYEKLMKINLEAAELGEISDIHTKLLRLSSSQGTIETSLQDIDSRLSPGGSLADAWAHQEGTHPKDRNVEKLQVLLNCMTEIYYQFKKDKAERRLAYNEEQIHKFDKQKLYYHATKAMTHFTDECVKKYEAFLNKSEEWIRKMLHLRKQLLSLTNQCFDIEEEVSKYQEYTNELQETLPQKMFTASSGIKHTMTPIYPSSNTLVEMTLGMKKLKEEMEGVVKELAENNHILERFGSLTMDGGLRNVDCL
Assay: In vitro TBK1 degradation assay, Panc02.13 cells (compounds 3-33), immunoblot
Assay type: cell-based
Settings: TBK1 degradation, Panc02.13 cells, 16 h; mean of ≥ 2 determinations
METRIC: Dmax (maximal degradation observed) (%)
Entry rule: numbers only, all in %.

Q) I would be grateful if you could share the reported Dmax (maximal degradation observed) for Cc1ncsc1-c1ccc(CNC(=O)[C@@H]2C[C@@H](O)CN2C(=O)[C@@H](NC(=O)COCCOCCCCOCCCCOCCOc2ccc(Nc3ncc(Br)c(NCCCN(C)C(=O)C4CCC4)n3)cc2)C(C)(C)C)cc1 [Compound 14] .
A) 96

Q) I would be grateful if you could share the reported Dmax (maximal degradation observed) for CCC[C@H](NC(=O)COCCCOCCCCOCCCOc1ccc(Nc2ncc(Br)c(NCCCN(C)C(=O)C3CCC3)n2)cc1)C(=O)N1C[C@H](O)C[C@H]1C(=O)NCc1ccc(-c2scnc2C)cc1 [Compound 32] .
A) 75

Q) I would be grateful if you could share the reported Dmax (maximal degradation observed) for Cc1ncsc1-c1ccc(CNC(=O)[C@@H]2C[C@@H](O)CN2C(=O)[C@@H](NC(=O)COCCOCCOCCCCOc2ccc(Nc3ncc(Br)c(NCCCN(C)C(=O)C4CCC4)n3)cc2)C(C)(C)C)cc1 [Compound 9] .
A) 86
